Recorded pIC50 by entry
- system-tested: JAK1 (Homo sapiens (Human), UniProt P23458)
- Sequence (P23458 875-1153): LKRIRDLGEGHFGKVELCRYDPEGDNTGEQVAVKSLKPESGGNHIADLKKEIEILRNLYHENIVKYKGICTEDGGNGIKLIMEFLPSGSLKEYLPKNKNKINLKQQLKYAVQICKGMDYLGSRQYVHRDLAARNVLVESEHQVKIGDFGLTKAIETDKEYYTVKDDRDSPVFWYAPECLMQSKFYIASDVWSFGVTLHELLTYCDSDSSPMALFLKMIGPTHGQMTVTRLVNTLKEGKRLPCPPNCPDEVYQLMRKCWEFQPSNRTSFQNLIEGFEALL
- assay-explanation: Jak biochemical HTRF assay, JAK1
- condition: HTRF biochemical assay, recombinant GST-tagged catalytic domain; read-out: JAK1 IC50
Schema: pIC50 number; meaning minus log10 of the concentration expressed in molar units.

Below, 3 molecules whose answers are already recorded.
1) CS(=O)(=O)c1ccc(Nc2nn([C@H]3CCCC[C@@H]3C#N)c3cc[nH]c(=O)c23)cc1CN [Example 6-4]	9.00
2) N#CCCn1cc(-c2ccc(Nc3nn([C@H]4CCCC[C@@H]4C#N)c4cc[nH]c(=O)c34)cc2)cn1 [Example 15-14]	10.19
3) CC(C)(C)N1Cc2cc(Nc3nn([C@H]4CCCCC[C@H]4C#N)c4cc[nH]c(=O)c34)ccc2S1(=O)=O (single isomer, unassigned) [Example 3-178]	9.08

Q: // lookup pIC50 for N#C[C@H]1CCCC[C@@H]1n1nc(Nc2ccc(C3(C(F)(F)F)CCCN3)cc2)c2c(=O)[nH]ccc21 (single isomer, unassigned) [Example 15-61]
Ans: 9.85

Q: // lookup pIC50 for N#C[C@H]1CCCC[C@@H]1n1nc(Nc2cccc(CNCC(F)(F)F)c2)c2c(=O)[nH]ccc21 [Example 3-39]
Ans: 9.19

Q: // lookup pIC50 for COCCC(C)(C)N1Cc2cc(Nc3nn([C@H]4CCCC[C@@H]4C#N)c4cc[nH]c(=O)c34)ccc2S1(=O)=O [Example 3-161]
Ans: 10.17

Q: // lookup pIC50 for Cn1ccc(NC(=O)Cc2cccc(Nc3nn([C@@H]4CCCC[C@H]4C#N)c4cc[nH]c(=O)c34)c2)n1 [Example 3-15]
Ans: 7.85

Q: // lookup pIC50 for N#Cc1ccc(Nc2nn([C@H]3CCC[C@@H]3C#N)c3cc[nH]c(=O)c23)cc1 [Example 3-112]
Ans: 9.60

Q: // lookup pIC50 for CC(c1ccc(Nc2nn([C@H]3CCCC[C@@H]3C#N)c3cc[nH]c(=O)c23)cc1)n1ccnn1 (single isomer, unassigned) [Example 15-42]
Ans: 9.82

----------
- system-tested: UniProt:P23458
- assay-explanation: Jak biochemical HTRF assay, JAK1
- condition: HTRF biochemical assay, recombinant GST-tagged catalytic domain; read-out: JAK1 IC50
Recorded pIC50 by entry
Schema: pIC50 number; meaning minus log10 of the concentration expressed in molar units.

Q: // lookup pIC50 for N#C[C@H]1CCCC[C@@H]1n1nc(Nc2ccc(S(=O)(=O)N3CCOCC3)cc2)c2c(=O)[nH]ccc21
Ans: 9.82

Q: // lookup pIC50 for N#C[C@H]1CCCC[C@@H]1n1nc(Nc2ccc3c(c2)CN(C2CCCC2)C3=O)c2c(=O)[nH]ccc21
Ans: 10.25

----------
- system-tested: JAK2 (Homo sapiens (Human))
- Sequence (O60674 849-1124): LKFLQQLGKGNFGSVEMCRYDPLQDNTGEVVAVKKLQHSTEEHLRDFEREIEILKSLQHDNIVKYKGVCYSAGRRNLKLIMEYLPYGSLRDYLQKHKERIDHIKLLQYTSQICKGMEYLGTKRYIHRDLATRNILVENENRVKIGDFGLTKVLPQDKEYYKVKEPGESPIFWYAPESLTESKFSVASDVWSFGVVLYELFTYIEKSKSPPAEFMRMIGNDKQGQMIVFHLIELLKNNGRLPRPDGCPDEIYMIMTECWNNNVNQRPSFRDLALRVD
- assay-explanation: Jak biochemical HTRF assay, JAK2
- condition: HTRF biochemical assay, recombinant GST-tagged catalytic domain; read-out: JAK2 IC50
measured-property: pIC50
Schema: pIC50 number; meaning minus log10 of the concentration expressed in molar units.

1) COC(C)(c1ccc(Nc2nn([C@H]3CCCC[C@@H]3C#N)c3cc[nH]c(=O)c23)cc1)C(F)(F)F (single isomer, unassigned)	9.07

Q: // lookup pIC50 for N#C[C@H]1CCCC[C@@H]1n1nc(Nc2ccc([C@H](N)C(F)(F)F)cc2)c2c(=O)[nH]ccc21
Ans: 9.39

Q: // lookup pIC50 for CC(O)(c1ccc(Nc2nn([C@H]3CCCC[C@@H]3C#N)c3cc[nH]c(=O)c23)cc1)C(F)(F)F (single isomer, unassigned) [Example 15-11]
Ans: 9.08

Q: // lookup pIC50 for Cn1cc(-c2ccc(Nc3nn([C@H]4CCCC[C@@H]4C#N)c4cc[nH]c(=O)c34)cc2Cl)cn1
Ans: 8.19

Q: // lookup pIC50 for N#CCC1(n2nc(Nc3ccc(C(N)C(F)F)cc3)c3c(=O)[nH]ccc32)CCCCC1 (single isomer, unassigned) [Example 9-1]
Ans: 9.33

Q: // lookup pIC50 for CC(C)(O)c1cn(Cc2cccc(Nc3nn([C@H]4CCCC[C@@H]4C#N)c4cc[nH]c(=O)c34)c2)nn1
Ans: 8.59
